Please go through the items and note down their solubility.
# Method Notes: Aqueous solubility of the compound in buffer at pH 6.8 by HPLC analysis
# Type: physicochemical
Reply numerically in µg/mL, unit not repeated.

## Task Entry under review: CC(C)(C)OC(=O)N1CCC(CCOC(=O)N2CCc3c2ccc(S(C)(=O)=O)c3Cl)CC1 . Reported solubility?
## Result 0.21

## Task Now this one: COc1cc2c(cc1S(C)(=O)=O)CCN2C(=O)OCCC1CCN(C(=O)OC(C)(C)C)CC1
## Result 45

## Task Try the compound Cc1c(S(C)(=O)=O)ccc2c1CCN2C(=O)OCCC1CCN(C(=O)OC(C)(C)C)CC1
## Result 0.17

## Task Let us now turn to CCc1cnc(N2CCC(C(C)COC(=O)N3CCc4cc(S(C)(=O)=O)cc(F)c43)CC2)nc1 (racemic)
## Result 3.8

## Task // repeat for COc1cc(S(C)(=O)=O)cc2c1N(C(=O)OCCC1CCN(C(=O)OC(C)(C)C)CC1)CC2 and report
## Result 64

## Task Now give it for Cc1cc(S(C)(=O)=O)cc2c1N(C(=O)OCCC1CCN(C(=O)OC(C)(C)C)CC1)CC2 too.
## Result 44

## Task Another compound: CC(C)(C)OC(=O)N1CCC(CCOC(=O)N2CCc3cc(S(C)(=O)=O)cc(F)c32)CC1
## Result 42

## Task Lookup CC(C)(C)OC(=O)N1CCC(CCOC(=O)N2CCc3cc(S(C)(=O)=O)cc(Cl)c32)CC1
## Result 21

## Task And for CC(COC(=O)N1CCc2cc(S(C)(=O)=O)cc(F)c21)C1CCN(C(=O)OC(C)(C)C)CC1 (racemic) ?
## Result 21

## Task Do the same for CC(C)(C)OC(=O)N1CCC(CCOC(=O)N2CCc3c2ccc(S(C)(=O)=O)c3F)CC1 please
## Result 0.81

## Task Subsequent entry: CC(C)(C)OC(=O)N1CCC(CCOC(=O)N2CCc3cc(S(C)(=O)=O)c(F)cc32)CC1
## Result 0.67

====

# Method Notes: 1-Octanol-water partition coefficient, log D of the compound at pH 7.4 by HPLC analysis
# Type: physicochemical
Rule: logD below 3 gives rule met, anything at or above gives rule not met.

## Task Could you please tell me whether logD recorded for CC(C)OC(=O)N1CCC(Oc2ccnc(N3CCc4cc(S(C)(=O)=O)ccc43)n2)CC1 is less than 3?
## Result rule not met

## Task Another compound to check: COc1cc2c(cc1S(C)(=O)=O)CCN2C(=O)OCCC1CCN(C(=O)OC(C)(C)C)CC1
## Result rule not met

## Task Next compound: CC(C)OC(=O)N1CCC(Oc2cc(N3CCc4cc(S(C)(=O)=O)ccc43)ncn2)CC1
## Result rule not met

## Task // query: Cc1cc(S(C)(=O)=O)cc2c1N(C(=O)OCCC1CCN(C(=O)OC(C)(C)C)CC1)CC2
## Result rule not met

## Task Would you mind doing CC(C)(C)OC(=O)N1CCC(CCNC(=O)N2CCc3cc(S(C)(=O)=O)ccc32)CC1 as well?
## Result rule met

## Task Try the compound CC(C)OC(=O)N1CCC(Oc2ncnc(N3CCc4cc(S(C)(=O)=O)ccc43)n2)CC1
## Result rule met

====

# Method Notes: 1-Octanol-water partition coefficient, log D of the compound at pH 7.4 by HPLC analysis
# Type: physicochemical
Reported Endpoint: logD

## Task Which logD reading was recorded for the compound CC(C)(C)OC(=O)N1CCC(CCOC(=O)N2CCc3cc(S(C)(=O)=O)cc(Cl)c32)CC1 ?
## Result 3.2

## Task Queued: CC(COC(=O)N1CCc2cc(S(C)(=O)=O)ccc21)C1CCN(C(=O)OC(C)(C)C)CC1 (racemic)
## Result 3.4

## Task Likewise for CC(C)c1noc(N2CCC(Oc3cc(N4CCc5cc(S(C)(=O)=O)ccc54)ncn3)CC2)n1 ?
## Result 3.1

## Task CC(COC(=O)N1CCc2cc(S(C)(=O)=O)cc(F)c21)C1CCN(C(=O)OC(C)(C)C)CC1 (racemic) , same question.
## Result 3.3

## Task Next entry: Cc1c(S(C)(=O)=O)ccc2c1CCN2C(=O)OCCC1CCN(C(=O)OC(C)(C)C)CC1
## Result 3.4

## Task Field entry: CC(C)(C)OC(=O)N1CCC(CCOC(=O)N2CCc3cc(S(C)(=O)=O)ccc32)CC1
## Result 3.1

## Task Try this compound too: CC(C)(C)OC(=O)N1CCC(CCCC(=O)N2CCc3cc(S(C)(=O)=O)ccc32)CC1
## Result 2.9

## Task Likewise for CC(C)OC(=O)N1CCC(Oc2cccc(N3CCc4cc(S(C)(=O)=O)ccc43)c2)CC1 ?
## Result 3.5

## Task // query: CC(C)(C)OC(=O)N1CCC(CCOC(=O)N2CCc3cc(S(C)(=O)=O)c(F)cc32)CC1
## Result 3.3

## Task And CC(C)(C)OC(=O)N1CCC(CCOC(=O)N2CCc3c2ccc(S(C)(=O)=O)c3F)CC1 ?
## Result 3.2

## Task Quick one: CC(CC1CCN(C(=O)OC(C)(C)C)CC1)OC(=O)N1CCc2cc(S(C)(=O)=O)ccc21 (racemic)
## Result 3.4

## Task Another compound: CC(C)(C)OC(=O)N1CCC(CCOC(=O)N2CCc3cc(S(C)(=O)=O)cc(F)c32)CC1
## Result 3

## Task Input CC(C)(C)OC(=O)N1CCC(CCCCN2CCc3cc(S(C)(=O)=O)ccc32)CC1
## Result 4.1

## Task Next compound up: CCc1cnc(N2CCC(Oc3cc(N4CCc5cc(S(C)(=O)=O)ccc54)ncn3)CC2)nc1
## Result 3.8

## Task Subsequent entry: COc1cc(S(C)(=O)=O)cc2c1N(C(=O)OCCC1CCN(C(=O)OC(C)(C)C)CC1)CC2
## Result 2.8

## Task What do we get for CCc1cnc(N2CCC(C(C)COC(=O)N3CCc4cc(S(C)(=O)=O)cc(F)c43)CC2)nc1 (racemic) ?
## Result 3.6

## Task Please give the result for CC(C)(C)OC(=O)N1CCC(CCOC(=O)N2CCc3c2ccc(S(C)(=O)=O)c3Cl)CC1 too.
## Result 3.6

## Task Moving on to CC(C)(C)OC(=O)N1CCC(C(O)COC(=O)N2CCc3cc(S(C)(=O)=O)ccc32)CC1 (racemic)
## Result 2.1
